target: Metabotropic glutamate receptor 1 (Homo sapiens, UniProt Q13255); experiment: Positive allosteric modulation of human mGlu1
measurement.name: EC50

# chemical.smiles, val
records = [
    ("Cc1ccc2c(c1)C(=O)N(c1ccc(NC(=O)c3occc3C)c(F)c1)C2=O", "13 nM"),
]

* * *

target: Metabotropic glutamate receptor 5 (Homo sapiens, UniProt P41594); assay: Positive allosteric modulation of human mGlu5 receptor
measurement.name: EC50

# chemical.smiles, study.target, measurement.name, val
records = [
    ("Cn1nc(-c2ccnn2C)cc1CNC(=O)c1cc(-c2ccco2)ccc1Cl", "Metabotropic glutamate receptor 5 (Homo sapiens, UniProt P41594)", "EC50", "> 30 µM"),
]

* * *

biological target: UniProt:O00222; test: Positive allosteric modulation of human mGlu8 receptor
Sequence (O00222 whole entry): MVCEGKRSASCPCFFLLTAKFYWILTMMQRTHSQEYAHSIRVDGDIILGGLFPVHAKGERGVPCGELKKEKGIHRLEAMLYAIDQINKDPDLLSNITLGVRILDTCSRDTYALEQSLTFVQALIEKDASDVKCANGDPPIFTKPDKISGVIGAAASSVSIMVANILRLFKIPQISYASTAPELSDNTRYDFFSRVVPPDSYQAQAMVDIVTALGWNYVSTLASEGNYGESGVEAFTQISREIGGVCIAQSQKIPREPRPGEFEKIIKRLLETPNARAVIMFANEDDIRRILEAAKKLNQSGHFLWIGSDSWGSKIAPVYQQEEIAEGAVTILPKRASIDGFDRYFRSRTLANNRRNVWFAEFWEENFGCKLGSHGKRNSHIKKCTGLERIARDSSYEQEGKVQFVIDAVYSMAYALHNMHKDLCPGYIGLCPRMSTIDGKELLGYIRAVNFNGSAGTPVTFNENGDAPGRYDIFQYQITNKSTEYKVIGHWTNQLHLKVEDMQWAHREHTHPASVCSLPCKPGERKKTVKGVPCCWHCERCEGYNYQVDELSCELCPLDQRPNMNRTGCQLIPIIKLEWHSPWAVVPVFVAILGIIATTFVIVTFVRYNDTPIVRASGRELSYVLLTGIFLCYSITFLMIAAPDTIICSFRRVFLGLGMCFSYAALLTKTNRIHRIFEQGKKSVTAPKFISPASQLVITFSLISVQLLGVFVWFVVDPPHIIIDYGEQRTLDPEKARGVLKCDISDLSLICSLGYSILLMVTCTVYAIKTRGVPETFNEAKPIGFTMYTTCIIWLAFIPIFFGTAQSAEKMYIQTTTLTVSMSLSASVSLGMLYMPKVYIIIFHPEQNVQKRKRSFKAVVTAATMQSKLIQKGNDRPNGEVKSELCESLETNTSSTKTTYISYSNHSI
pEC50: −log10 of the molar value.

# chemical.smiles, pEC50
records = [
    ("Cn1nc(-c2ccnn2C)cc1CNC(=O)c1cc(-c2ccco2)ccc1Cl", "< 4.52"),
]

* * *

test: Initial plasma concentration in male dog; type: ADME, Canis lupus familiaris; conditions: read-out: C0

# chemical.smiles, concentration / nM
data = [
    ("Cc1ccc2c(c1)C(=O)N(c1ccc(NC(=O)c3occc3C)c(F)c1)C2=O", 1100),
]

* * *

target: Metabotropic glutamate receptor 4 (Homo sapiens, UniProt Q14833); assay: Positive allosteric modulation of human mGlu4 receptor
Sequence (Q14833 whole entry): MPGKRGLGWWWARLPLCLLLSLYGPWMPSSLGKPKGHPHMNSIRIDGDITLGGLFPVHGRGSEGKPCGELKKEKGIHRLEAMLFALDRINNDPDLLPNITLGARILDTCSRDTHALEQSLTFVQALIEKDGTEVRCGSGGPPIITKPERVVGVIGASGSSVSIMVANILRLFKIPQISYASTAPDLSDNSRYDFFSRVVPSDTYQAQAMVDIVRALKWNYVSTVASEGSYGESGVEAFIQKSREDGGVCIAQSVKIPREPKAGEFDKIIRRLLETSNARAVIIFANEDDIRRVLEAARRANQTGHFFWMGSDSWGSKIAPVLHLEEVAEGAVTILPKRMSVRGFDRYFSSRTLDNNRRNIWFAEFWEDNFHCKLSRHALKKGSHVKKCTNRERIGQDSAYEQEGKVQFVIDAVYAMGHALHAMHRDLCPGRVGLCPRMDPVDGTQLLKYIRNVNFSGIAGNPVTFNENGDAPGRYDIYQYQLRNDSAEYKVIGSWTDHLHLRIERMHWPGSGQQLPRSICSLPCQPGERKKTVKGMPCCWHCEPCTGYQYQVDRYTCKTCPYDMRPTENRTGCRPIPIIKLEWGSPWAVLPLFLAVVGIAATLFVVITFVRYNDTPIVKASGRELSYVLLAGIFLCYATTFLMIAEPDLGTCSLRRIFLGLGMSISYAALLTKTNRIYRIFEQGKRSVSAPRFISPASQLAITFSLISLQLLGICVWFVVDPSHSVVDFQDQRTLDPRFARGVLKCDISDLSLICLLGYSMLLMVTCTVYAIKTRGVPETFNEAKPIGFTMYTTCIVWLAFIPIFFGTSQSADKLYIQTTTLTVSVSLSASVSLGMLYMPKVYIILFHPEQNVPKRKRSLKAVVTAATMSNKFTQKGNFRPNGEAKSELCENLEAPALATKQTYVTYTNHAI

# chemical.smiles, study.target, EC50
rows = [
    ("Cn1nc(-c2ccnn2C)cc1CNC(=O)c1cc(-c2ccco2)ccc1Cl", "Metabotropic glutamate receptor 4 (Homo sapiens, UniProt Q14833)", "> 30 µM"),
]

* * *

target: Metabotropic glutamate receptor 3 (Rattus norvegicus); assay: Positive allosteric modulation of rat mGlu3 receptor
Sequence (P31422 whole entry): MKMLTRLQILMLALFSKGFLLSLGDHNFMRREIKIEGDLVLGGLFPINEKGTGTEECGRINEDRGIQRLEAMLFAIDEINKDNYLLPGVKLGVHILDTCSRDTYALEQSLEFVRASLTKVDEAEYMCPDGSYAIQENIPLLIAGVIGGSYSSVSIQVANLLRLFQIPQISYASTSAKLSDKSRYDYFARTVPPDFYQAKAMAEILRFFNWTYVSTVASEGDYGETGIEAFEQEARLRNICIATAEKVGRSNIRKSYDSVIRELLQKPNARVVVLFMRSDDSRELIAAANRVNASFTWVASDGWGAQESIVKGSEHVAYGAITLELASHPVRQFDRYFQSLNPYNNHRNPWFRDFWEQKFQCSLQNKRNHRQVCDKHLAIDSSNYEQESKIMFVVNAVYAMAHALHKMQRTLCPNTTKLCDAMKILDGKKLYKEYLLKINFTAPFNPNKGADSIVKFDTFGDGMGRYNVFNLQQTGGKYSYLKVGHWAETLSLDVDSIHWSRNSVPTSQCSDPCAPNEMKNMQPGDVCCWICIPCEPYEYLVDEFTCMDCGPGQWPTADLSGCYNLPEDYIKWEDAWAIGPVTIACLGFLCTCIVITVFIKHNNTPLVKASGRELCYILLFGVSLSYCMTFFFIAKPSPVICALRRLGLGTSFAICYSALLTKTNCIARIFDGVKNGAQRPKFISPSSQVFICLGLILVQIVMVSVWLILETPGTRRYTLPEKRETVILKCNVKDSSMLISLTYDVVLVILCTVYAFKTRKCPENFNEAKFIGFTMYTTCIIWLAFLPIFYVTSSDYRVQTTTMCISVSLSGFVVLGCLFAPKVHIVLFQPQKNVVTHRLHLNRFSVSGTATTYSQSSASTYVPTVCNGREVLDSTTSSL

# chemical.smiles, EC50
records = [
    ("Cn1nc(-c2ccnn2C)cc1CNC(=O)c1cc(-c2ccco2)ccc1Cl", "> 30 µM"),
]

* * *

molecular target: Metabotropic glutamate receptor 2 (Rattus norvegicus, UniProt P31421); experiment: Positive allosteric modulation of rat mGlu2 receptor
Sequence (P31421 whole entry): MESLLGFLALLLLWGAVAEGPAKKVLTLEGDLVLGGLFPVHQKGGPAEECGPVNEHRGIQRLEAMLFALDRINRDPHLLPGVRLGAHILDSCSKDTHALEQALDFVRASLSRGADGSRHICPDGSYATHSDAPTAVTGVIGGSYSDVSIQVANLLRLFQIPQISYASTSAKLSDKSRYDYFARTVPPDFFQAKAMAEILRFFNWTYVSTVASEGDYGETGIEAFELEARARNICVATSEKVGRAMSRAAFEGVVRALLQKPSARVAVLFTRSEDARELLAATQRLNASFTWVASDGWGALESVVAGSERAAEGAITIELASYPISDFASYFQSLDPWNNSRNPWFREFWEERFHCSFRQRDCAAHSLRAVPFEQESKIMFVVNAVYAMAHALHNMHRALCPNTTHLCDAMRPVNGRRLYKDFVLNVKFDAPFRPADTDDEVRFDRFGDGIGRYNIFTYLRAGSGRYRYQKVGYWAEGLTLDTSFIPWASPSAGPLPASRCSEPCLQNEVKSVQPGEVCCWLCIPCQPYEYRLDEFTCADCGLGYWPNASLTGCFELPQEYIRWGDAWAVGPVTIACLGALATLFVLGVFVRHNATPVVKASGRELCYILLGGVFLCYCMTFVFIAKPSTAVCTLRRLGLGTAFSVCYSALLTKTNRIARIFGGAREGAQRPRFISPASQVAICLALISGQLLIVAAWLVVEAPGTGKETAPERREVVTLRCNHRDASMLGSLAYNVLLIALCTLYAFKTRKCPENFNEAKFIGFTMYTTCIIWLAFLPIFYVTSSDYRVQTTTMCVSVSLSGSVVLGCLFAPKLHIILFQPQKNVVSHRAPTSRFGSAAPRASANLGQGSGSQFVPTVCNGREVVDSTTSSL
pEC50: −log10 of the molar value.

# chemical.smiles, pEC50
data = [
    ("Cn1nc(-c2ccnn2C)cc1CNC(=O)c1cc(-c2ccco2)ccc1Cl", "< 4.52"),
]

* * *

target: Metabotropic glutamate receptor 3 (Homo sapiens); test: Positive allosteric modulation of human mGlu3 receptor
Sequence (Q14832 whole entry): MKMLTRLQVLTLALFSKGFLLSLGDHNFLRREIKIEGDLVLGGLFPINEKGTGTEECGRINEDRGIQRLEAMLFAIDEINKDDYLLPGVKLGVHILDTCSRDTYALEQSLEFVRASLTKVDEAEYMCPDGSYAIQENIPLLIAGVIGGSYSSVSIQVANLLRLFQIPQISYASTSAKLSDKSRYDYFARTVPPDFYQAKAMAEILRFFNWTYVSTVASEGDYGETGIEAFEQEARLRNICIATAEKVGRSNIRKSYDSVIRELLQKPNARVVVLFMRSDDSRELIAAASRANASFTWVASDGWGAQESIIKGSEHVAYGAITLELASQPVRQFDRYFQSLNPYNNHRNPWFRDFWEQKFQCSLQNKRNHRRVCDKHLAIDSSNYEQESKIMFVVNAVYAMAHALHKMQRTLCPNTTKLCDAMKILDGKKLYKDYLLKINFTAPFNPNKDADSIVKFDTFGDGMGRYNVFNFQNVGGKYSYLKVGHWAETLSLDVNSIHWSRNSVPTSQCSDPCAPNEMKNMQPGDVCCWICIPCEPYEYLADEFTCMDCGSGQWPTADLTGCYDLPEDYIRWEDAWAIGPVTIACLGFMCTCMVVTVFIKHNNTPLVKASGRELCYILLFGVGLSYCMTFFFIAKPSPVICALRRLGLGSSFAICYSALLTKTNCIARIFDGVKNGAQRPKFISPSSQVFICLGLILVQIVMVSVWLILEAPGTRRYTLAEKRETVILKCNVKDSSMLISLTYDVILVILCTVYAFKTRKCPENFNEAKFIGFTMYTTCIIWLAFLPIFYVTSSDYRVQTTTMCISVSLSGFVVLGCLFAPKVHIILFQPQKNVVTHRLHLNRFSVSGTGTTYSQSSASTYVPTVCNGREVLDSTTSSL
pEC50: −log10 of the molar value.
measurement.name: pEC50

# chemical.smiles, val
records = [
    ("Cn1nc(-c2ccnn2C)cc1CNC(=O)c1cc(-c2ccco2)ccc1Cl", "< 4.52"),
]

* * *

target: Metabotropic glutamate receptor 8 (Rattus norvegicus, UniProt P70579); assay: Positive allosteric modulation of rat mGlu8 receptor
pEC50: −log10 of the molar value.

# chemical.smiles, pEC50
data = [
    ("Cn1nc(-c2ccnn2C)cc1CNC(=O)c1cc(-c2ccco2)ccc1Cl", "< 4.52"),
]

Numbers sourced from ChEMBL document CHEMBL6096671.
